Origin of values: paper PMC10202811

Experiment: Plasma pharmacokinetics of lorlatinib at steady state (LC-MS/MS, non-compartmental analysis)
Format: in vivo, human
Conditions: Cycle 1 Day 15, Cohort B2, 95 mg/m2 per dose
Result Type: Tlast (h)
Numeric answer only, unit h assumed.

// returns reported Tlast for input C[C@H]1Oc2cc(cnc2N)-c2c(nn(C)c2C#N)CN(C)C(=O)c2ccc(F)cc21
24

* * *

Assay: Plasma pharmacokinetics of lorlatinib at steady state (LC-MS/MS, non-compartmental analysis)
Assay type: in vivo, human
Conditions: Cycle 1 Day 1; Cohort A1; 60 mg/m2 per dose; individual patients; unit assumed
Result Type: Tlag (h)
Numeric answer only, unit h assumed.

// returns reported Tlag for input C[C@H]1Oc2cc(cnc2N)-c2c(nn(C)c2C#N)CN(C)C(=O)c2ccc(F)cc21 [Lorlatinib]
0

* * *

Experiment: Plasma pharmacokinetics of lorlatinib at steady state (LC-MS/MS, non-compartmental analysis)
Format: in vivo, human
Settings: human, plasma, oral, 95 mg/m2, Cycle 1 Day 15, Cohort B2, 95 mg/m2 per dose; read-out: Tmax
Result Type: Tmax (h)
Numeric answer only, unit h assumed.

// returns reported Tmax for input C[C@H]1Oc2cc(cnc2N)-c2c(nn(C)c2C#N)CN(C)C(=O)c2ccc(F)cc21
4

* * *

Assay: Plasma pharmacokinetics of lorlatinib at steady state (LC-MS/MS, non-compartmental analysis)
Type: in vivo, human
Settings: Cycle 1 Day 15; Cohort A1; 60 mg/m2 per dose; individual patients; unit assumed
Result Type: Tlag (h)
Numeric answer only, unit h assumed.

// returns reported Tlag for input C[C@H]1Oc2cc(cnc2N)-c2c(nn(C)c2C#N)CN(C)C(=O)c2ccc(F)cc21
0

* * *

Test: Plasma pharmacokinetics of lorlatinib at steady state (LC-MS/MS, non-compartmental analysis)
Format: in vivo, human
Conditions: human, plasma, oral, 45 mg/m2, Cycle 1 Day 15; Cohort A1; 45 mg/m2 per dose; individual patients; read-out: Tmax
Result Type: Tmax (h)
Numeric answer only, unit h assumed.

// returns reported Tmax for input C[C@H]1Oc2cc(cnc2N)-c2c(nn(C)c2C#N)CN(C)C(=O)c2ccc(F)cc21 [Lorlatinib]
1

* * *

Test: Plasma pharmacokinetics of lorlatinib at steady state (LC-MS/MS, non-compartmental analysis)
Format: in vivo, human
Conditions: human, in vivo, 115 mg/m2, Cycle 1 Day 15, Cohort B2, 115 mg/m2 per dose; read-out: MRTINF_obs
Result Type: MRT inf (h)
Numeric answer only, unit h assumed.

// returns reported MRT inf for input C[C@H]1Oc2cc(cnc2N)-c2c(nn(C)c2C#N)CN(C)C(=O)c2ccc(F)cc21 [Lorlatinib]
13.5

* * *

Assay: Plasma pharmacokinetics of lorlatinib at steady state (LC-MS/MS, non-compartmental analysis)
Format: in vivo, human
Details: Cycle 1 Day 15; Cohort A1; 45 mg/m2 per dose; individual patients; unit assumed
Result Type: Tlag

// returns reported Tlag for input C[C@H]1Oc2cc(cnc2N)-c2c(nn(C)c2C#N)CN(C)C(=O)c2ccc(F)cc21
0 h

* * *

Assay: Plasma pharmacokinetics of lorlatinib at steady state (LC-MS/MS, non-compartmental analysis)
Type: in vivo, human
Conditions: Cycle 1 Day 1; patient N0773; Cohort B2; 115 mg/m2 per dose; Dose 75
Result Type: Tlast (h)
Numeric answer only, unit h assumed.

// returns reported Tlast for input C[C@H]1Oc2cc(cnc2N)-c2c(nn(C)c2C#N)CN(C)C(=O)c2ccc(F)cc21
24
